Test system: biotinyl-Trp-oxazolone
Assay: self-aminoacylation, catalytic enhancement (BWO) (fold over background); higher = more active; k-Seq, kA / k0A0; sequences stand for … in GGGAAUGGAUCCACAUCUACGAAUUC…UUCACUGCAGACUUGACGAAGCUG
Variants at the floor of the assay were thinned out.
So I've got a bunch of sequences here, and I need their self-aminoacylation values.

Some entries whose results are on file:
{"columns": ["biopolymer.sequence", "self-aminoacylation"],
 "data": [
  ["UUUACCCUGGGCAUCGAGUGA [Fam2.1 aminoacylation ribozyme variant]", 5.06],
  ["CCAGACGUCAAGCAAUCGGUC [Fam1B.1 aminoacylation ribozyme variant]", 0.65],
  ["CUACUUCAUACAAUGGGUCUG [Fam1A.1 aminoacylation ribozyme variant]", 0.764],
  ["AUUACGCUGGUCAUCGAGUCA [Fam2.1 aminoacylation ribozyme variant]", 0.981],
  ["CCACGCUUAAAGCAAUCGGUC [Fam1B.1 aminoacylation ribozyme variant]", 0.646],
  ["ACUUACCUAGGUCAUCGGGUG [Fam2.2 aminoacylation ribozyme variant]", 10.1]
]}

Each of the following entries comes with a recorded value; kindly state self-aminoacylation for each.
1. AUAACCCUGGUCAUCGAGUGC [Fam2.1 aminoacylation ribozyme variant]
2. UUUACCCUGGUCAUCGAGUGG [Fam2.1 aminoacylation ribozyme variant]
3. AUUACGCAGGUCAUCGAGUGA [Fam2.1 aminoacylation ribozyme variant]
4. AUACACCUAAGUCAUCGGGUG [Fam2.2 aminoacylation ribozyme variant]

1: 1.89; 2: 29.3; 3: 5.06; 4: 4.14
